// provenance: a melting point compilation (Tetko et al.; mined from patent text by program, amines drawn as free bases though some values may be those of a salt)

Known melting point of a selection of molecules

Field: example entries. Status: answers known.
{"MOLECULE": "CCOC(=O)C(OC)C(=O)Nc1cc(Cl)cc(Cl)c1 (stereo unspecified)", "PROPERTY_NAME": "melting point", "RECORDED_VALUE": "89.5 to 92.5 °C"}
{"MOLECULE": "COc1ccc(/C=C/c2cc(Cl)cc(Cl)c2)cc1", "PROPERTY_NAME": "melting point", "RECORDED_VALUE": "62 to 64 °C"}
{"MOLECULE": "CC(=O)OC1CCC2(C)C(=CCC3C2CC(c2cccnc2)C2(C)C=CCC32)C1 (stereo unspecified)", "PROPERTY_NAME": "melting point", "RECORDED_VALUE": "144 to 145 °C"}
{"MOLECULE": "Cc1c[nH]c(-c2ccccc2)c1-c1ccccc1", "PROPERTY_NAME": "melting point", "RECORDED_VALUE": "163 to 164 °C"}
{"MOLECULE": "CC#CCCn1ncc2c(OCC)c(C(=O)OCC)cnc21", "PROPERTY_NAME": "melting point", "RECORDED_VALUE": "93 to 95 °C"}
{"MOLECULE": "CN(C)c1ccc2nc(N)c(C#N)c(N=Cc3ccccc3)c2c1", "PROPERTY_NAME": "melting point", "RECORDED_VALUE": "265 °C"}
{"MOLECULE": "CNc1c(N)n(CC(C)(C)C)c(=O)[nH]c1=O", "PROPERTY_NAME": "melting point", "RECORDED_VALUE": "217 to 220 °C"}
{"MOLECULE": "N#Cc1ccc(C(=O)NC(=S)NC2CCCCC2)cc1", "PROPERTY_NAME": "melting point", "RECORDED_VALUE": "136 to 137 °C"}
{"MOLECULE": "O=C(O)CCC(=O)Nc1ccc2oc(-c3ccc(O)cc3)c(O)c(=O)c2c1", "PROPERTY_NAME": "melting point", "RECORDED_VALUE": "256 to 257 °C"}
{"MOLECULE": "C#CC1(Oc2ccc(F)cc2N)CCN(C(=O)Oc2ccccc2)CC1", "PROPERTY_NAME": "melting point", "RECORDED_VALUE": "125 to 127 °C"}

Return the recorded melting point value; entry: NNC1(Cl)C=Cc2nc(Cl)cnc2C1 (stereo unspecified)
< 250 °C
